FYI, the data here is from ChEMBL document CHEMBL1154508.

Experiment: Drug level in brain of sub-chronic rat joint pain efficacy model satellite animal group at 20 mg/kg bid measured on day 5 after 1 hr post dose
Format: ADME, organism-based
Design: dose 20 mg/kg
Details: read-out: Drug uptake
measure: concentration at 1 h (µM)
// return numeric value only (unit: µM, not printed)

Returns the measured concentration at 1 h for the input compound. Input: CC(C)COc1ccc(Cl)cc1-c1ccccc1-c1cccc(C(=O)[O-])n1.[Na+] 3.63

###

Experiment: Drug level in rat brain at 0.28 mg/kg/hr, iv for 18 hrs
Type: ADME, organism-based
Set-up: route intravenous
Conditions: read-out: Drug uptake
measure: concentration at 18 h (µM)
// return numeric value only (unit: µM, not printed)

Returns the measured concentration at 18 h for the input compound. Input: CC(C)COc1ccc(Cl)cc1-c1ccccc1-c1cccc(C(=O)[O-])n1.[Na+] 0.55
